assay: activity coefficient (dimensionless); of the first substance listed, at infinite dilution; xn = mol fraction of the nth substance listed; conditions: 308.15 K; 101 kPa; Liquid; Chromatography; x1 = 0
Entries and their measured activity coefficient follow.

compound: C#CCCCC [1-hexyne] + CCCCn1cc[n+](C)c1.COCCOCCOS(=O)(=O)[O-]
activity coefficient: 4.91

compound: C1CCCCCC1 [cycloheptane] + CCCCn1cc[n+](C)c1.COCCOCCOS(=O)(=O)[O-]
activity coefficient: 36.4

compound: C1CCCC1 [cyclopentane] + CCCCn1cc[n+](C)c1.COCCOCCOS(=O)(=O)[O-]
activity coefficient: 20.5

compound: CCCCCCCC [octane] + CCCCn1cc[n+](C)c1.COCCOCCOS(=O)(=O)[O-]
activity coefficient: 130

compound: CO [methanol] + CCCCn1cc[n+](C)c1.COCCOCCOS(=O)(=O)[O-]
activity coefficient: 0.337

compound: C=CCCCC [hex-1-ene] + CCCCn1cc[n+](C)c1.COCCOCCOS(=O)(=O)[O-]
activity coefficient: 31.4

compound: ClC(Cl)(Cl)Cl [tetrachloromethane] + CCCCn1cc[n+](C)c1.COCCOCCOS(=O)(=O)[O-]
activity coefficient: 2.91

compound: CCCCCCC [heptane] + CCCCn1cc[n+](C)c1.COCCOCCOS(=O)(=O)[O-]
activity coefficient: 94.5

* * *

assay: activity coefficient (dimensionless); of the first substance listed, at infinite dilution; xn = mol fraction of the nth substance listed; settings: 303.15 K; 101 kPa; Liquid; Chromatography; x1 = 0
Hi all, reminder that labels come from activity coefficient, split as I = under 3, II = from 3 up to 60, III = 60 and over

molecule: Cc1ccccc1 [toluene] + CCCCn1cc[n+](C)c1.COCCOCCOS(=O)(=O)[O-]
assigned-label: II
--
molecule: CCCCC [pentane] + CCCCn1cc[n+](C)c1.COCCOCCOS(=O)(=O)[O-]
assigned-label: II
--
molecule: c1ccccc1 [benzene] + CCCCn1cc[n+](C)c1.COCCOCCOS(=O)(=O)[O-]
assigned-label: I
--
molecule: C=CCCCCCC [oct-1-ene] + CCCCn1cc[n+](C)c1.COCCOCCOS(=O)(=O)[O-]
assigned-label: III
--
molecule: C1CCCC1 [cyclopentane] + CCCCn1cc[n+](C)c1.COCCOCCOS(=O)(=O)[O-]
assigned-label: II
--
molecule: ClC(Cl)(Cl)Cl [tetrachloromethane] + CCCCn1cc[n+](C)c1.COCCOCCOS(=O)(=O)[O-]
assigned-label: I
--
molecule: C#CCCCCCC [1-octyne] + CCCCn1cc[n+](C)c1.COCCOCCOS(=O)(=O)[O-]
assigned-label: II
--
molecule: CO [methanol] + CCCCn1cc[n+](C)c1.COCCOCCOS(=O)(=O)[O-]
assigned-label: I
--
molecule: CCCCCCC [heptane] + CCCCn1cc[n+](C)c1.COCCOCCOS(=O)(=O)[O-]
assigned-label: III

* * *

test: activity coefficient (dimensionless); of the first substance listed, at infinite dilution; xn = mol fraction of the nth substance listed; conditions: 298.15 K; 101 kPa; Liquid; Chromatography; x1 = 0
Kindly return True if reported activity coefficient is no lower than 40; return False if it is lower.

compound: C1CCCCCC1 [cycloheptane] + CCCCn1cc[n+](C)c1.COCCOCCOS(=O)(=O)[O-]
assigned-label: True
--
compound: ClC(Cl)(Cl)Cl [tetrachloromethane] + CCCCn1cc[n+](C)c1.COCCOCCOS(=O)(=O)[O-]
assigned-label: False
--
compound: C=CCCCCCC [oct-1-ene] + CCCCn1cc[n+](C)c1.COCCOCCOS(=O)(=O)[O-]
assigned-label: True
--
compound: C#CCCCCC [1-heptyne] + CCCCn1cc[n+](C)c1.COCCOCCOS(=O)(=O)[O-]
assigned-label: False
--
compound: C#CCCCCCC [1-octyne] + CCCCn1cc[n+](C)c1.COCCOCCOS(=O)(=O)[O-]
assigned-label: False
--
compound: C=CCCCC [hex-1-ene] + CCCCn1cc[n+](C)c1.COCCOCCOS(=O)(=O)[O-]
assigned-label: False
--
compound: CCCCCC [hexane] + CCCCn1cc[n+](C)c1.COCCOCCOS(=O)(=O)[O-]
assigned-label: True
--
compound: CCCCCCCC [octane] + CCCCn1cc[n+](C)c1.COCCOCCOS(=O)(=O)[O-]
assigned-label: True
--
compound: CCCCCCC [heptane] + CCCCn1cc[n+](C)c1.COCCOCCOS(=O)(=O)[O-]
assigned-label: True
